System: MARIMO
Experiment: cell viability relative to vehicle control; higher = less cytotoxic;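 note: after 48 h exposure read by CellTiter-Glo luminescence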
Conditions: 10 µM; SRSF2 genotype: SRSF2 wt/wt
PROPERTY_NAME: cell viability

Cc1c(C)c2c(c(C)c1O)CCC(C)(CCCC(C)CCCC(C)CCCC(C)C)O2 (stereo not drawn)
104%
O=c1cc(-c2ccccc2)oc2cc(O)c(O)c(O)c12
83.8%

--- query ---
QUERY: Checklist item: cell viability tested on MARIMO, entry Cc1ncc(COP(=O)(O)O)c(C=O)c1O [Pyridoxal phosphate] , value?
RESULT: 106%

* * *

Tested on: K562
Test: cell viability relative to vehicle control; higher = less cytotoxic
Conditions: 10 µM; SRSF2 genotype: SRSF2 wt/wt
Please respond with Criterion met when measured cell viability is strictly beneath 90%, and with Criterion not met in all other cases.

CCCCCCCCCCCCCCCCCCCCCC(=O)O [Behenic Acid]
Criterion not met
Nc1ccc(S(=O)(=O)Nc2ccccn2)cc1 [Sulfapyridine (Dagenan)]
Criterion not met
O=c1[nH]c(=O)c2[nH]cnc2[nH]1 [2,6-Dihydroxypurine]
Criterion not met
O=C(c1ccc(Oc2ccccc2)cc1Cl)c1c[nH]c2ncnc(N[C@@H]3CC[C@@H](CO)OC3)c12
Criterion met
C#CC[C@H](c1nc2cc(Cl)ccc2c(=O)n1Nc1ccccc1)N(CCCN)C(=O)c1cccc(Cl)c1F
Criterion met
CC(=O)O[C@H]1CC(=O)OC(C)(C)[C@@H]2CC(=O)[C@]3(C)[C@H](CC[C@@]4(C)[C@@H](c5ccoc5)OC(=O)[C@H]5O[C@]543)[C@@]12C [Nomilin]
Criterion not met

QUERY: cell viability under 90%? Item: O=C(COc1ccc(C(=O)c2ccccc2)cc1)NC1CCN(Cc2ccccc2)CC1 [Adiporon]
RESULT: Criterion met

QUERY: cell viability under 90%? Item: COc1cc2ncnc(Nc3ccc(Oc4ccccc4)cc3C)c2cc1OC
RESULT: Criterion met

QUERY: cell viability under 90%? Item: Cc1nc2cc(F)c(F)cc2n1-c1cncc(Nc2ccc(C(F)(F)F)cc2)n1
RESULT: Criterion met

* * *

System: MARIMO
Assay: cell viability relative to vehicle control; higher = less cytotoxic
Conditions: 10 µM; SRSF2 genotype: SRSF2 P95H/wt
// reported cell viability per item
API: value field is a number in %; no unit string.

Recorded results for 2 compounds are shown here.
C=CC(=O)N1CCC[C@@H](n2nc(-c3ccc(Oc4ccccc4)cc3)c(C(N)=O)c2N)C1 [Btk inhibitor 2]
79.8
CS(=O)(=O)Nc1cc2occ(NC=O)c(=O)c2cc1Oc1ccccc1 [Iguratimod]
107

--- query ---
QUERY: Item CCOc1nc2cccc(C(=O)OCc3oc(=O)oc3C)c2n1Cc1ccc(-c2ccccc2-c2noc(=O)[nH]2)cc1 [Azilsartan Medoxomil (TAK-491)] has what recorded cell viability?
RESULT: 101

* * *

Tested on: K562
Test: cell viability relative to vehicle control; higher = less cytotoxic
Details: 10 µM; SRSF2 genotype: SRSF2 wt/wt
// reported cell viability per item
API: value field is a number in %; no unit string.

QUERY: Item C#Cc1cccc(Nc2ncnc3cc(OC)c(OCCCCCCC(=O)NO)cc23)c1 has what recorded cell viability?
RESULT: 3.12

* * *

// reported cell viability per item
Test system: MOLM14
Test: cell viability relative to vehicle control; higher = less cytotoxic
Details: 10 µM; SRSF2 genotype: SRSF2 P95H/wt
API: value field is a number in %; no unit string.

C/C(=C(/CCOC(=O)c1ccccc1)SC(=O)c1ccccc1)N(C=O)Cc1cnc(C)nc1N
90.8
CC1(C)CC[C@]2(C(=O)O)CC[C@]3(C)C(=CC[C@@H]4[C@@]5(C)C[C@@H](O)[C@H](O)C(C)(C)[C@@H]5CC[C@]43C)[C@@H]2C1
90.7
Cc1ccnc2c1NC(=O)c1cccnc1N2C1CC1
89.9

QUERY: Item COc1cc(C)c(/C=C/C(C)=C/C=C/C(C)=C/C(=O)O)c(C)c1C has what recorded cell viability?
RESULT: 87.4

QUERY: Item C/C(=C\C(=O)OCCCCCCCCC(=O)O)C[C@@H]1OC[C@H](C[C@@H]2O[C@H]2[C@@H](C)[C@H](C)O)[C@@H](O)[C@H]1O has what recorded cell viability?
RESULT: 94.2

QUERY: Item CCCCCCCCCCCCCCCC(=O)O has what recorded cell viability?
RESULT: 100

QUERY: Item O=C(NC1CCOCC1)c1ccc(-c2cc(-c3c[nH]nc3-c3ccccn3)ccn2)cc1 has what recorded cell viability?
RESULT: 103

QUERY: Item CC(C(=O)O)c1ccc(C(=O)c2cccs2)cc1 (stereo not drawn) has what recorded cell viability?
RESULT: 98.9
